- Measured Target: T1, human neonatal Fc receptor (hFcRn) (human, UniProt P55899 24-290; P61769 21-119)
- T1 construct: Biotinylated in the ELISA, Octet and yeast assays; also called human FcRn; huFcRn
- T1 sequence (P55899 24-290 limits assumed, chain 1 of 2): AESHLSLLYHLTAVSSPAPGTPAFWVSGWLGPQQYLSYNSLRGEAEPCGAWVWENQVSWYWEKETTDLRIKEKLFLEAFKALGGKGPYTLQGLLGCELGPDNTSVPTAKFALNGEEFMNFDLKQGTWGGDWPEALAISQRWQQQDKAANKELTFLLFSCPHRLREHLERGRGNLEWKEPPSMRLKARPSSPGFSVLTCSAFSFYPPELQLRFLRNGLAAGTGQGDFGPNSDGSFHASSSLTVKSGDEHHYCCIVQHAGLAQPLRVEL
- T1 sequence (P61769 21-119 limits assumed, chain 2 of 2): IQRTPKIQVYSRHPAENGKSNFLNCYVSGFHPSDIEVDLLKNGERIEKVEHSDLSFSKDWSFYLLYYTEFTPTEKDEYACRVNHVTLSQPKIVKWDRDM
- Test Details: BLI (Octet), association pH 6, dissociation pH 7.4
Readout Name: binding result

Consider the following illustrative entries.
[
  {
    "Binder": "variant Fc-fragment 5-1-10 (other) EPKSCDKTHTCPPCPAPELLGGPSVFLFPPKPKDTLMISRTPEVTCVVVDVSHEDPEVKFNWYVDGVEVHNAKTKPREEQYNSTYRVVSVLTVLHQDWLNGKEYKCKVSNKALPAPIEKTISKAKGQPREPQVYTLPPSRDELTKNQVSLTCLVKGFYPSDIAVEWESGGGCGMPIEFCGGGPENNYKTTPPVLDSDGSFFLYSKLTVDKSRWQQGNVFSCSVMHEALHNHYTQKSLSLSPGK",
    "binding result": "binds"
  },
  {
    "Binder": "variant Fc-fragment 5-1-6 (other) EPKSCDKTHTCPPCPAPELLGGPSVFLFPPKPKDTLMISRTPEVTCVVVDVSHEDPEVKFNWYVDGVEVHNAKTKPREEQYNSTYRVVSVLTVLHQDWLNGKEYKCKVSNKALPAPIEKTISKAKGQPREPQVYTLPPSRDELTKNQVSLTCLVKGFYPSDIAVEWESNGQPEGGCGMPIEFCGGNNYKTTPPVLDSDGSFFLYSKLTVDKSRWQQGNVFSCSVMHEALHNHYTQKSLSLSPGK",
    "binding result": "binds"
  },
  {
    "Binder": "variant Fc-fragment 5-1-3 (other) EPKSCDKTHTCPPCPAPELLGGPSVFLFPPKPKDTLMISRTPEVTCVVVDVSHEDPEVKFNWYVDGVEVHNAKTKPREEQYNSTYRVVSVLTVLHQDWLNGKEYKCKVSNKALPAPIEKTISKAKGQPREPQVYTLPPSRDELTKNQVSLTCLVKGFYPSDIAVEWESNGGGCGMPIEFCGGQPENNYKTTPPVLDSDGSFFLYSKLTVDKSRWQQGNVFSCSVMHEALHNHYTQKSLSLSPGK",
    "binding result": "binds"
  },
  {
    "Binder": "variant Fc-fragment 5-1-5 (other) EPKSCDKTHTCPPCPAPELLGGPSVFLFPPKPKDTLMISRTPEVTCVVVDVSHEDPEVKFNWYVDGVEVHNAKTKPREEQYNSTYRVVSVLTVLHQDWLNGKEYKCKVSNKALPAPIEKTISKAKGQPREPQVYTLPPSRDELTKNQVSLTCLVKGFYPSDIAVEWESNGQPGGCGMPIEFCGGENNYKTTPPVLDSDGSFFLYSKLTVDKSRWQQGNVFSCSVMHEALHNHYTQKSLSLSPGK",
    "binding result": "binds"
  }
]

Note: attention shifts to another entry.
Give its binding result value. Item: variant Fc-fragment 5-1-2 (other) EPKSCDKTHTCPPCPAPELLGGPSVFLFPPKPKDTLMISRTPEVTCVVVDVSHEDPEVKFNWYVDGVEVHNAKTKPREEQYNSTYRVVSVLTVLHQDWLNGKEYKCKVSNKALPAPIEKTISKAKGQPREPQVYTLPPSRDELTKNQVSLTCLVKGFYPSDIAVEWESGGCGMPIEFCGGNGQPENNYKTTPPVLDSDGSFFLYSKLTVDKSRWQQGNVFSCSVMHEALHNHYTQKSLSLSPGK
binds

Where these numbers come from: patent US20140356358A1
